tested-on: UniProt P00918
procedure-text: CA inhibition, stopped-flow CO2 hydrase assay, hCA II
Type: biochemical
pKi: −log10 of the molar value.
readout-name: pKi

I = O=C1c2ccccc2S(=O)(=O)N1c1ccccc1Cl [Compound 31]
II = O=C(O)c1ccccc1S(=O)(=O)Nc1ccc([N+](=O)[O-])cc1 [Compound 24]
### Prompt Select one: I or II . Criterion: greater recorded pKi. Which one? Tell me its label.
### Response II
(II: 4.17, I: 3.32)

* * *

tested-on: hCA IX (Homo sapiens)
procedure-text: CA inhibition, stopped-flow CO2 hydrase assay, hCA IX
Assay type: biochemical
experimental-context: Table 2, acesulfame-based derivatives; mean from 3 different assays, errors ± 5–10%
pKi: −log10 of the molar value.
Entries and their pKi

Examples from the recorded data:
{"compound": "CC1=CC(OCc2cn(-c3ccc(Br)cc3)nn2)=NS(=O)(=O)O1 [Compound 58]", "pKi": "< 3.00"}
{"compound": "CC(C)=CCN1C(=O)C=C(C)OS1(=O)=O [Compound 50]", "pKi": 6.48}
{"compound": "CC1=CC(=O)N(Cc2cn(-c3ccc(Cl)cc3)nn2)S(=O)(=O)O1 [Compound 54]", "pKi": "< 3.00"}
{"compound": "COc1ccc(-n2cc(COC3=NS(=O)(=O)OC(C)=C3)nn2)cc1 [Compound 59]", "pKi": "< 3.00"}

### Prompt # value lookup — system hCA IX (Homo sapiens), readout pKi, item CC1=CC(OCc2cn(-c3ccccc3)nn2)=NS(=O)(=O)O1 [Compound 55]
### Response < 3.00

### Prompt Tell me reported pKi for CC1=CC(=O)N(Cc2ccc(Cl)c(Cl)c2)S(=O)(=O)O1 [Compound 52] , tested with hCA IX (Homo sapiens).
### Response 6.33

### Prompt API: value(readout= pKi, system= hCA IX (Homo sapiens), query= CC1=CC(OCc2cn(-c3ccc(Cl)cc3)nn2)=NS(=O)(=O)O1 [Compound 57] )
### Response < 3.00

### Prompt Checklist item: pKi tested on hCA IX (Homo sapiens), entry CC1=CC(=O)N(Cc2ccccc2)S(=O)(=O)O1 [Compound 51] , value?
### Response 5.57

### Prompt Form field: pKi recorded for CC1=CC(OCc2cn(-c3ccc(C)cc3)nn2)=NS(=O)(=O)O1 [Compound 56] with hCA IX (Homo sapiens) (enter value)
### Response < 3.00

### Prompt Lookup: pKi / hCA IX (Homo sapiens) / CC1=CC(OCc2cn(Cc3ccccc3)nn2)=NS(=O)(=O)O1 [Compound 60]
### Response 5.96

### Prompt Could you share what pKi was measured for CC1=CC(=O)N(Cc2cn(-c3ccccc3)nn2)S(=O)(=O)O1 [Compound 53] , tested on hCA IX (Homo sapiens)?
### Response < 3.00
